molecular target: mu-opioid receptor (MOR) (Rattus norvegicus, UniProt P33535); construct: Rat cortices were homogenized using 50 mM Tris, pH 7.4, and centrifuged at 16,500 rpm for 10 min; from tissue; host or cells: rat cortex membranes; experiment: MOR radioligand competition binding assay ([3H]-DAMGO); conditions: Mu screening results, experiment 1; unit inferred; read-out: Ki (Exp 1)
Sequence (P33535 whole entry): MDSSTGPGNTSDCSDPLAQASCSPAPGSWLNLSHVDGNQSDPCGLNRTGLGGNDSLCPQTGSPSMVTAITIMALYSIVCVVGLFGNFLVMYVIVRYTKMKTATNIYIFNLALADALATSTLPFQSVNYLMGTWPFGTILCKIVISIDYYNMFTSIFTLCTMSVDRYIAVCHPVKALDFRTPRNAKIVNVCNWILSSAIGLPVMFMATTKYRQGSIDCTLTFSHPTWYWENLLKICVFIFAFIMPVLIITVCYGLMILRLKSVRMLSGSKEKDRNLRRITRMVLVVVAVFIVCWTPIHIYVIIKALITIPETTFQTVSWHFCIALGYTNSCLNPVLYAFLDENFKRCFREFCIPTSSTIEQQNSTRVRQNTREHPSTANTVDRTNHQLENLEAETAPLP
# key: entry, value: pKi
Schema: pKi number; meaning minus log10 of the concentration expressed in molar units.

Known pKi results, listed for orientation:
compound	pKi
CC(C)C[C@@H](CN1C(=N)NC[C@@H]1Cc1ccc(O)cc1)N1C[C@H](Cc2ccc(O)cc2)NC1=N [1968-26]	6.11
CC(C)C[C@@H](CN1C(=N)NC[C@@H]1Cc1ccccc1)N1C[C@H](Cc2ccc(O)cc2)NC1=N [1968-10]	6.70
CC(C)C[C@H]1CN([C@@H](CC(C)C)CN2C(=N)NC[C@@H]2Cc2ccccc2)C(=N)N1 [1968-11]	5.53
Cc1cc(O)cc(C)c1C[C@H]1CN([C@@H](CC(C)C)CN2C(=N)NC[C@@H]2Cc2ccc(O)cc2)C(=N)N1 [1968-28]	6.93

Attention now turns to another entry.
Value lookup for pKi; key = CC(C)C[C@@H](CN1C(=N)NC[C@@H]1C)N1C[C@H](Cc2ccccc2)NC1=N [1968-41]
5.25

Recorded values, source paper PMC9455983.
